Some compounds, each annotated with its measured selectivity ratio.
# methodSummary: Selectivity index, ratio of CC50 for human MT4 cells to EC50 for reverse transcriptase Y188L mutant in human MT4 cells infected HIV1 3B
# conditionDescription: MT4 cells

| compound | readoutRelation | selectivity ratio |
| --- | --- | --- |
| Cc1cc(/C=C/C#N)cc(C)c1Oc1nc(NC2CCN(Cc3ccc([N+](=O)[O-])cc3)CC2)nc2ccsc12 | = | 30 |
| Cc1cc(/C=C/C#N)cc(C)c1Oc1nc(NC2CCN(Cc3ccc(Cl)cc3)CC2)nc2ccsc12 | = | 22 |
| Cc1cc(C#N)cc(C)c1Oc1nc(NC2CCN(Cc3ccc(S(N)(=O)=O)cc3)CC2)nc2sccc12 | = | 3170 |
| Cc1cc(C#N)cc(C)c1Oc1nc(NC2CCC(NCc3ccc(Br)cc3)CC2)nc2ccsc12 (centres undefined) | < | 1 |
